pKi: −log10 of the molar value.
In what follows, each item is paired with its pKi for Sodium-dependent serotonin transporter (Homo sapiens).

>  <entry.smiles>
Fc1ccc(CN(c2ccc3[nH]ccc3c2)C2CCNCC2)cc1

>  <pKi>
8.70

$$$$
>  <entry.smiles>
Cn1ccc2cc(N(Cc3ccccc3)C3CCNCC3)ccc21

>  <pKi>
8.40

$$$$
>  <entry.smiles>
COc1cccc(CN(c2ccc3[nH]ccc3c2)C2CCNCC2)c1

>  <pKi>
8.80

$$$$
>  <entry.smiles>
c1cc2cc(N(CC3CCOCC3)C3CCNCC3)ccc2[nH]1

>  <pKi>
7.40

$$$$
>  <entry.smiles>
Fc1ccccc1CN(c1ccc2[nH]ccc2c1)C1CCNCC1

>  <pKi>
8.40

$$$$
>  <entry.smiles>
N#Cc1cccc(CN(c2ccc3[nH]ccc3c2)C2CCNCC2)c1

>  <pKi>
9.60

$$$$
>  <entry.smiles>
CNCCN(c1ccccc1)c1ccc2[nH]ccc2c1

>  <pKi>
6.40

$$$$
>  <entry.smiles>
c1ccc(CN(c2ccc3[nH]ncc3c2)C2CCNCC2)cc1

>  <pKi>
8.90

$$$$
>  <entry.smiles>
NS(=O)(=O)c1cccc(CN(c2ccc3[nH]ccc3c2)C2CCNCC2)c1

>  <pKi>
8.20

$$$$
>  <entry.smiles>
Fc1cccc(CN(c2ccc3[nH]ccc3c2)C2CCNCC2)c1

>  <pKi>
8.90

$$$$
>  <entry.smiles>
N#Cc1ccccc1CN(c1ccc2[nH]ccc2c1)C1CCNCC1

>  <pKi>
8.40

$$$$

All figures here come from ChEMBL document CHEMBL1153074.
